# System: TK-10 renal
# protocol details: NCI tumour cell line growth inhibition, 48 h

compound: O=C1c2ccccc2C(=O)N1c1ccc(S(=O)(=O)Nc2ncccn2)cc1
GI50: > 100 µM

compound: C=CC1CC12C(=O)C1OC2(C)C2C(=O)c3c(ccc4c3ccc3ccccc34)C(=O)C12 (centres undefined)
GI50: 52.9 µM

compound: COc1cccc(/C=N\Nc2ccc([N+](=O)[O-])cn2)c1O
GI50: 7.31 µM

compound: COc1cnc2c(c1)C(=O)c1c-2n(CCCn2ccnc2)c(=O)c2cc(Cl)ccc12
GI50: 0.744 µM

compound: COc1ccc(-c2n[nH]nc2-c2csc3ccccc23)cc1OC
GI50: 2.98 µM

compound: CCC[C@H](N[C@@H]1CCc2cc(F)cc(F)c2C1)C(=O)Nc1cn(C(C)(C)CNCC(C)(C)C)cn1
GI50: 21.8 µM

compound: O=C(COc1cccc(/C=C2\COc3ccccc3C2=O)c1)Nc1nccs1
GI50: 3.05 µM

compound: CN1CCN(c2ccc3c4c(cccc24)C(=O)N(CCN2CCN(CCCN4CCN(CCN5C(=O)c6cccc7c(N8CCN(C)CC8)ccc(c67)C5=O)CC4)CC2)C3=O)CC1
GI50: 9.38 µM

compound: ClCCN(CCCl)c1ccc(-n2cnc3c(Cl)ncnc32)cc1
GI50: 13 µM

----------
# Tested on: SF-539 CNS
# protocol details: NCI tumour cell line growth inhibition, 48 h
measurement kind: TGI

compound: O=C1CCCC/C1=C/C=C/c1ccccc1
test system: SF-539 CNS
measurement kind: TGI
readout value: > 100 µM
//
compound: Cc1c(C(=O)/C=C/c2ccc(Cl)cc2)[n+](=O)c2ccccc2n1[O-]
test system: SF-539 CNS
measurement kind: TGI
readout value: 25.7 µM
//
compound: O=C(Cn1nc(Br)c(Br)c1Br)c1ccccc1
test system: SF-539 CNS
measurement kind: TGI
readout value: 45.1 µM
//
compound: O=C(c1cc(Cl)cc(Cl)c1)N(C(=S)OC12CC3CC(CC(C3)C1)C2)c1ccccc1
test system: SF-539 CNS
measurement kind: TGI
readout value: > 100 µM
//
compound: CCOP(=O)(/C=C\n1cnc2c(=O)n(C(C)=O)c(N)nc21)OCC
test system: SF-539 CNS
measurement kind: TGI
readout value: > 100 µM
//
compound: COc1ccc2c(c1)CC[C@@H]1[C@@H]2CC[C@@]2(C)[C@H]1CC1(CCCCC1)[C@@H]2O
test system: SF-539 CNS
measurement kind: TGI
readout value: 16.6 µM
//
compound: CCCCCCCCCCCCCCCc1cc(O)ccc1N
test system: SF-539 CNS
measurement kind: TGI
readout value: 2.19 µM
//
compound: Cn1c(CCC#N)nc2ccc(Br)cc2c1=O
test system: SF-539 CNS
measurement kind: TGI
readout value: > 100 µM
//
compound: CC(=O)[O-].CC(=O)[O-].O=C(N/N=C/c1cc(Cl)cc(Cl)c1[OH2+])c1ccncc1.[Co+2]
test system: SF-539 CNS
measurement kind: TGI
readout value: > 100 µM
//
compound: COc1ccc2c3c1C(=O)CCC3CO2 (stereo unspecified)
test system: SF-539 CNS
measurement kind: TGI
readout value: > 100 µM
//
compound: CC(=O)Nc1ncc(Sc2ccccc2C(=O)O)s1
test system: SF-539 CNS
measurement kind: TGI
readout value: > 100 µM

----------
# Tested on: M14 melanoma
# protocol details: NCI tumour cell line growth inhibition, 48 h
Quick list: TGI per entry.

compound: O=c1ccccc2cccc(O)c12
TGI: > 100 µM
--
compound: COC(=O)CC1(CNC(=O)OCc2ccccc2)OCCO1
TGI: > 100 µM
--
compound: O=C1OCC(C#Cc2ccccc2)=C1Cl
TGI: 16.4 µM
--
compound: C=C1c2c(cc3c(c2O)c(=O)c2ccccc2n3C)OC1(C)C
TGI: > 100 µM
--
compound: Cc1ccc(C(=O)C(C)N)cc1 (configuration not stated)
TGI: > 100 µM
--
compound: COc1cc(CSc2nc3ccc(C)cc3c(=O)n2Cc2ccccc2)cc(OC)c1OC
TGI: > 100 µM
--
compound: CCOc1ccccc1/C=C1\NC(=O)N(/C=C2\C(=O)Oc3ccccc3C2=O)C1=O
TGI: > 100 µM
--
compound: CCC(Sc1nnc2c3ccccc3n(CC)c2n1)C(=O)Nc1ccccc1OC (configuration not stated)
TGI: > 100 µM
--
compound: COP(C)(=O)/C(Cc1ccccc1)=N\O (configuration not stated)
TGI: > 100 µM
--
compound: CCCCCCCCCCCCCCCC(=O)OCC(O)C1OC(=O)C(O)=C1O (configuration not stated)
TGI: 36.2 µM
--
compound: Cc1nc2c(o1)C(=O)c1ccccc1/C2=N/c1ccccn1
TGI: 33.6 µM
--
compound: COc1cccc(/C=N\Nc2ccc([N+](=O)[O-])cn2)c1O
TGI: 25.9 µM

----------
# Test system: A549 NSCLC
# protocol details: NCI tumour cell line growth inhibition, 48 h; in the data active = GI50 below about 0.43 µM; inactive = the rest
Outcomes: 1.0 for active, 0.0 for inactive

compound: O=C1/C(=C/c2ccccc2Cl)N=C(c2ccccc2)N1Cc1ccco1
qualitative label: 0.0
//
compound: CC(ONC(=O)c1cc(C(F)(F)F)cc(C(F)(F)F)c1)C(=O)Nc1ccc(Cl)cc1 (stereo not given)
qualitative label: 0.0
//
compound: C#C[C@]1(O)CC[C@H]2[C@@H]3CC=C4c5sc(N=C(N)N)nc5CC[C@]4(C)[C@H]3CC[C@@]21C
qualitative label: 0.0
//
compound: CN1C(=O)CNC(=O)[C@H](NC(=O)c2nc3ccccc3cc2O)CSSC[C@H]1C(=O)NCCc1nc2ccccc2cc1O
qualitative label: 0.0
//
compound: CCN(CC)CCOc1ccc(/C=C2\CC3C4CCC5=CC(=O)CC[C@]5(C)C4CC[C@]3(C)C2=O)cc1OC (stereo not given in full)
qualitative label: 0.0
//
compound: CC(C)=CCc1c(O)cc(/C=C/c2cc(O)c3c(c2)C[C@@H]2C(C)(C)[C@H](O)[C@H](O)C[C@@]2(C)O3)cc1O
qualitative label: 1.0
//
compound: CC(=O)O[C@H]1CC[C@]2(C)[C@H]3CC[C@@H]4[C@H]5[C@H](C(C)C)CC[C@]5(C(=O)OCC(CO)(CO)N=C(N)N)CC[C@@]4(C)[C@]3(C)CC[C@H]2C1(C)C
qualitative label: 0.0
//
compound: CS(=O)(=O)CCNCc1ccc(-c2ccc3ncnc(Nc4ccc(OCc5cccc(C(F)(F)F)c5)cc4)c3c2)o1
qualitative label: 0.0
//
compound: CCC[CH2][Sn]([CH2]CCC)([O]C(=O)c1cccc(F)c1)[O]C(=O)c1cccc(F)c1
qualitative label: 0.0
//
compound: COCCOC(=O)C1=C(C)NC2=C(C(=O)CC(c3ccccc3OC)C2)C1c1cccc(O)c1 (stereo not given)
qualitative label: 0.0
//
compound: CCN(CC)c1ccc2c(c1)Oc1nc(N)c(C#N)c(N)c1C2Sc1ccc(SC)cc1 (stereo not given)
qualitative label: 0.0
//
compound: COc1ccc2[nH]cc(-c3nc(-c4cn(C)c5ccncc45)cs3)c2c1
qualitative label: 0.0
//
compound: O=C(Nc1cc(C(F)(F)F)ccc1F)Nc1n[nH]c2ccccc12
qualitative label: 0.0
//
compound: CC(=O)OC1COC(S[As](C)C)C(OC(C)=O)C1OC(C)=O (stereo not given)
qualitative label: 0.0
//
compound: CCC(Sc1nnc2c3ccccc3n(CC)c2n1)C(=O)Nc1ccccc1OC (stereo not given)
qualitative label: 0.0

----------
# System: OVCAR-5 ovarian
# protocol details: NCI tumour cell line growth inhibition, 48 h
Reported TGI is given for each of the following compounds.

compound: CC1=CC(C)(C)N=C2SC(c3ccc(Cl)cc3)=NN12
result comparator: =
TGI, µM: 53.7
--
compound: COc1ccc2c(c1)c(C1(c3cn(C)c4ccc(OC)cc34)C(=O)Nc3ccc(F)cc31)cn2C
result comparator: =
TGI, µM: 84.8
--
compound: C#C[C@]1(O)CC[C@H]2[C@@H]3CC=C4c5sc(N=C(N)N)nc5CC[C@]4(C)[C@H]3CC[C@@]21C
result comparator: =
TGI, µM: 2.65
--
compound: O=C(Cn1nc(Br)c(Br)c1Br)c1ccccc1
result comparator: >
TGI, µM: 100
--
compound: COP(C)(=O)/C(Cc1ccccc1)=N\O (stereo not given)
result comparator: >
TGI, µM: 100

----------
# Tested on: XF 498 CNS
# protocol details: NCI tumour cell line growth inhibition, 48 h
Measured TGI of individual entries

compound: C=C1c2c(cc3c(c2O)c(=O)c2ccccc2n3C)OC1(C)C
test system: XF 498 CNS
TGI: 57.2 µM
//
compound: O=C(O)/C(=C/c1ccccc1[N+](=O)[O-])c1ccccc1
test system: XF 498 CNS
TGI: > 100 µM
//
compound: C(=C\c1csnn1)/c1cccnc1
test system: XF 498 CNS
TGI: > 100 µM
//
compound: CCOC(=O)/N=C(\N)SCc1ccccc1
test system: XF 498 CNS
TGI: > 100 µM
//
compound: O=C(CCC(=O)Nc1ccc(Cl)cc1)CC(=O)c1ccc(F)cc1
test system: XF 498 CNS
TGI: > 100 µM
//
compound: O=P(O)(O)C(CSc1ccccc1)P(=O)(O)O
test system: XF 498 CNS
TGI: > 100 µM
//
compound: CC1=CC(C)(C)N=C2SC(c3ccc(Cl)cc3)=NN12
test system: XF 498 CNS
TGI: 51.8 µM
//
compound: O=c1ccccc2cccc(O)c12
test system: XF 498 CNS
TGI: > 100 µM
//
compound: Cc1ccc(C(=O)C(C)N)cc1 (configuration not stated)
test system: XF 498 CNS
TGI: > 100 µM
//
compound: COc1ccc2c3c1C(=O)CCC3CO2 (configuration not stated)
test system: XF 498 CNS
TGI: > 100 µM
//
compound: Cc1ccc(NC(=O)/C(CC(=O)c2c[n+](=O)c3ccccc3n2O)=N\NC(=O)C[n+]2ccccc2)cc1
test system: XF 498 CNS
TGI: > 100 µM
//
compound: COc1cc2c(c(OC)c1OC)-c1[nH]ncc1CC2
test system: XF 498 CNS
TGI: > 100 µM
